Values from PubChem BioAssay AID602445

# Test system: mouse liver microsomes with NADPH, percent remaining
# protocol-details: High Content Assay for Compounds that inhibit the Assembly of the Perinucleolar Compartment: Mouse Liver Microsome Stability with NADPH
# measurement-conditions: active compounds read low
endpoint-name: percent remaining (%)
One number for each entry, in %.

QUERY: Quickly give me recorded percent remaining for N=c1c2c(-c3ccccc3)c(-c3ccccc3)n(Cc3ccccc3)c2ncn1C1CCC(O)CC1 (stereo unspecified)
RESULT: 107
